- experimental protocol: folding stability dG unfold from trypsin proteolysis; higher = more stable

polymer sequence | folding stability dG unfold [kcal/mol]
SAGKPPPVKIEVNYRRTPDNSYRAEVQIRLPDGKPLFEVTYPFDNPDDPEARERFVRKARNLAKELANSAGG [r19_13_TrROS] | 1.9
SAGGSAGGSAGGMSITFTAPDGSKITATIDPDGNVLVEVHLGDKPYYVKGPVETLLKNAPSAGGSAGGSAGG [r7_178_TrMRF] | 0.325
SAGGSAGGSAGGKVSEIDLSGDKVVVTVKGPGGSVVREVHPDKTLEQVLDELLENPELVDSAGGSAGGSAGG [r7_373_TrMRF] | -0.176
SAGGSAGGSAGGSGPPKLRLLRRVEVVYDGLVLPPNFPLPPSAPPNLKVFVSLVTLPEGSAGGSAGGSAGGS [r4_436_TrMRF] | 3.11
SAKRVNVEIWIPGDWDEIQEIAEDINFPVEIERNPDKPDMYRITFTFPTPEKAPKILDALNKHGMQIEISAG [r14_745_TrROS] | 1.33
SAGGSAGGSAGGKVTVEKDKETGKYTVKIVNKKTKKEITVTVPAKDKEKALKKAKELAKSAGGSAGGSAGGS [r10_1117_TrROS_Hall] | -0.349
SAGGSAGGSAGKPKTKTITLTLLVYDEETGEFYRIEARIEINEDGSITIEEKIEKLPLKPSAGGSAGGSAGG [r11_941_TrROS_Hall] | 2.81
AAPEGAVVTFDDKEITVAPDETLYLVNGKLYTKSEIPAVLKQLSPETEYTELTVAGDTGEVETETKHIYRPS [r1_304_JUSTAS] | 0.867
SAGGEISPEDIKELEIYPIPPEDAQKNGYIMIEIKGPGGKPIAQIMIPVRVPKVKDKDGKPMDLEDMNSAGG [r13_864_TrROS] | 1.13
SAGGSAGGKKTVEIEMTVDELLAALKSLSEEELKNVKIIGKDGKEFTLEDLEKNPGKIYKIEVKSAGGSAGG [r6_428_TrROS_Hall] | 0.694
